Provide the recorded EC50 for the entries that follow.
Target: Type-1 angiotensin II receptor (Homo sapiens)
Assay: AT1 receptor agonists, beta-arrestin recruitment, SAR follow-up, selectivity assay for APJ agonist project, cell-based, CHO-K1 PathHunter, luminescence (AID 488881)
Conditions: CHO-K1 AGTR1 PathHunter beta-arrestin
The source made the active and inactive calls.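 Rule for the calls: active = mean EC50 below 10 µM; inactive = the rest.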

Look over these answered cases.
compound=COc1ccccc1-n1c(SCC(=O)c2ccccc2)nc(O)cc1=O experimental_result="> 79 µM (inactive)"
compound=CCc1c(O)nc(SC)n(C2CCCCC2)c1=O experimental_result="> 79 µM (inactive)"
compound=CC1=C/C(=N/OS(=O)(=O)c2ccc(C)cc2)C=CC1=O experimental_result="> 79 µM (inactive)"
compound=CC1=C/C(=N/OS(=O)(=O)c2ccccc2)C(C)=CC1=O experimental_result="> 79 µM (inactive)"
compound="CCc1c(O)nc(SC(C)CC)n(C(C)CC)c1=O (configuration not stated)" experimental_result="> 79 µM (inactive)"

For every record below, what is its EC50?
1. CC1=C/C(=N/OS(=O)(=O)c2ccc(C)cc2)C(C(C)C)=CC1=O
2. Cc1cc(C)n2nc3nc(N4CCOCC4)nc(-c4ccccc4)c3c2n1
3. CCc1c(O)nc(SCc2ccccc2)n(C(C)CC)c1=O (configuration not stated)
4. CCc1c(O)nc(SCc2ccccc2)n(C2CCCCC2)c1=O
5. CC1=CC(=NOS(=O)(=O)c2ccc(C)cc2)C=C(C)C1=O
6. C=CCSc1nc(O)c(CC)c(=O)n1C1CCCCC1
7. CCN1/C(=C/C(=O)c2sc(=S)n(CC)c2O)Sc2ccccc21
8. CCc1c(O)n(C2CCCCC2)c(=S)[nH]c1=O

> 79 µM (inactive)
> 79 µM (inactive)
> 79 µM (inactive)
> 79 µM (inactive)
> 79 µM (inactive)
> 79 µM (inactive)
> 79 µM (inactive)
> 79 µM (inactive)

For every record below, what is its EC50?
1. CC1=CC(=O)C=C(C)C1=NOS(=O)(=O)c1ccccc1
2. C=CCn1c(SCc2ccccc2)nc(O)c(CC)c1=O

1. > 79 µM (inactive)
2. > 79 µM (inactive)

For every record below, what is its EC50?
1. CC1=CC(=NOS(=O)(=O)c2ccc(Cl)cc2)C=C(C)C1=O
2. O=S(=O)(Nc1nc(-c2ccccc2)cs1)c1ccc(Cl)cc1

1. > 79 µM (inactive)
2. > 79 µM (inactive)
